Would you mind telling me the reported pEC50 of each entry?
# tested-target: MC1R (Homo sapiens)
# Construct: expressed in transfected cells
# measurement-notes: In vitro activity of MCR receptors, intracellular cAMP signal (HEK293T/MCR cell line), MC1R
# Format: cell-based
# measurement-conditions: cAMP, HEK293T/MCR cell line; read-out: MC1R EC50
# Experimental: Test purpose: to evaluate the agonistic effect of the compound on MCRs by detecting intracellular cAMP signal changes. Cells were resuspended with 1×PBS+500 μM IBMX. 10 μL of the cell suspension was added into a 384-well plate to be tested, and the cell concentration was adjusted to 1×10^4 cells per well for later use. A pre-prepared solution of the compound to be tested was added, and dimethyl sulfoxide of the same volume was added to blank control wells. […]
Where a name gives a salt, the structure may show the parent alone.
Give bare numbers, as −log10 of the molar value.

Dear colleague, could you send me pEC50 for each of the items below? Thanks.
1. C[C@@H]1CN(C(=O)C2CN([C@H]3CCO[C@@H](C)C3)C[C@H]2c2ccc(F)cc2F)C[C@H](C)N1c1ccc(F)cc1 (stereo partly drawn) [Compound 22d]
2. C[C@@H]1CN(C(=O)[C@@H]2CN(C3CCC3)C[C@H]2c2ccc(F)cc2F)C[C@H](C)N1c1ccc(F)cc1 [Compound 17]
3. C[C@@H]1CN(C(=O)[C@@H]2CN(C3CCCCC3)C[C@H]2c2ccc(F)cc2F)C[C@H](C)N1c1ccc(F)cc1 [Compound 18]
4. C[C@@H]1CN(C(=O)[C@@H]2CN(C3CCOCC3)C[C@H]2c2ccc(F)cc2F)C[C@H](C)N1c1ccc(F)c(F)c1 [Compound 14]

[6.97, 7.26, 7.54, 6.24]

Provide reported pEC50 for each item, in the same order as listed.
1. C[C@@H]1CN(C(=O)[C@@H]2CN(C(C)(C)C)C[C@H]2c2ccc(F)cc2F)C[C@H](C)N1c1ccccc1 [Hydrochloride salt of compound 6]
2. C[C@@H]1CN(C(=O)C2CN(C3CCOC(C)(C)C3)CC2c2ccc(F)cc2F)C[C@H](C)N1c1ccc(F)cc1 (single isomer, unassigned) [Compound 21b]

1. 7.10
2. 6.31

* * *

# measurement-notes: Drug concentration in brain tissues of rats, intravenous injection
# Type: in vivo, SD rats
# measurement-conditions: SD, plasma, iv; rat, i.v. 2 mg/kg, 0.5 hour; read-out: Plasma drug concentration
assay-metric: concentration at 0.5 h (nM)
Numbers only, in nM.

Name the reported concentration at 0.5 h value associated with the compound C[C@@H]1CN(C(=O)[C@@H]2CN(C3CCOCC3)C[C@H]2c2ccc(F)cc2F)C[C@H](C)N1c1ccc(F)cc1 (single isomer, unassigned) 362

* * *

# measurement-notes: Drug concentration in brain tissues of rats, intravenous injection
# Type: in vivo, SD rats
# measurement-conditions: SD, brain/plasma, iv; rat, i.v. 2 mg/kg, 2 hours; read-out: Brain-to-blood ratio
assay-metric: Kp at 2 h

# Kp at 2 h lookup, item C[C@@H]1CN(C(=O)[C@@H]2CN(C3CCOCC3)C[C@H]2c2ccc(F)cc2F)C[C@H](C)N1c1ccc(F)cc1 (single isomer, unassigned) [Compound 7] 6.9

* * *

# measurement-notes: Drug concentration in brain tissues of rats, oral gavage
# Assay type: in vivo
# measurement-conditions: SD, brain/plasma, rat, p.o. 20 mg/kg, 1 hour
assay-metric: Kp uu at 1 h
Give bare numbers.

Report Kp uu at 1 h for C[C@@H]1CN(C(=O)[C@@H]2CN(C3CCOCC3)C[C@H]2c2ccc(F)cc2F)C[C@H](C)N1c1ccc(F)cc1 (single isomer, unassigned) please. 1.5

* * *

# Tested on: MDR1
# measurement-notes: In vitro MDCK-MDR1 permeability
# Assay type: in vitro ADME
# measurement-conditions: dog, MDCK-MDR1, pH 7.4; MDR1-MDCKII monolayer, 2 μM, 150 minutes, pH 7.40
assay-metric: Papp B→A at 150 min, 2 μM (×10⁻⁶ cm/s)
Give bare numbers, in ×10⁻⁶ cm/s.

API: value(readout= Papp B→A at 150 min, 2 μM, system= MDR1, query= C[C@@H]1CN(C(=O)[C@@H]2CN(C3CCOCC3)C[C@H]2c2ccc(F)cc2F)C[C@H](C)N1c1ccc(F)cc1 (single isomer, unassigned) ) 13.2

* * *

# tested-target: MC4R (Homo sapiens, UniProt P32245)
# Construct: expressed in transfected cells
# Sequence (P32245 whole entry): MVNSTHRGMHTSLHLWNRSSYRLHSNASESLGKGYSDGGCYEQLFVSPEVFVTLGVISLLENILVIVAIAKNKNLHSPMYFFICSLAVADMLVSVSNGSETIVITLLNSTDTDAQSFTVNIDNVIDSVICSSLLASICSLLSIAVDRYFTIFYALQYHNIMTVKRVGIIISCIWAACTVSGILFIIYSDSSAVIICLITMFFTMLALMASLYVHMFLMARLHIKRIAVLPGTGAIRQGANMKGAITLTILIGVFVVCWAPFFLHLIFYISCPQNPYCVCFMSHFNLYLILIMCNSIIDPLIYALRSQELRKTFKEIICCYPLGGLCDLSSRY
# measurement-notes: In vitro activity of MCR receptors, intracellular cAMP signal (HEK293T/MCR cell line), MC4R
# Assay type: cell-based
assay-metric: EC50 (nM)
One number for each entry, in nM.

Look over these answered cases.
[
  {
    "compound": "C[C@@H]1CN(C(=O)C2CN(c3cccnn3)CC2c2ccc(F)cc2F)C[C@H](C)N1c1ccc(F)cc1 (single isomer, unassigned) [Compound 11]",
    "unit-text": "nM",
    "measured-value": 0.4
  },
  {
    "compound": "C[C@@H]1CN(C(=O)C2CN(c3ccccc3)CC2c2ccc(F)cc2F)C[C@H](C)N1c1ccc(F)cc1 (single isomer, unassigned) [Compound 13]",
    "unit-text": "nM",
    "measured-value": 50
  }
]

Field request: EC50 | item: C[C@@H]1CN(C(=O)C2CN(C3CCOCC3)CC2c2ccc(Cl)cc2)C[C@H](C)N1c1ccc(F)cc1 (single isomer, unassigned) [Compound 16] 6

* * *

# measurement-notes: Drug concentration in brain tissues of rats, intravenous injection
# Assay type: in vivo, SD rats
# measurement-conditions: SD, brain, iv; rat, i.v. 2 mg/kg, 2 hours; read-out: Brain drug concentration
# Protocol: 3.1 6 healthy SD rats of 6-9 weeks old were selected, and the test compound was administered via intravenous injection. Two animals were randomly selected at 0.5 hour, 2 hours and 4 hours after administration respectively, and plasma and brain tissue samples were collected, and the quantitative assay of all biological samples was performed using the LC-MS/MS method.
assay-metric: concentration at 2 h (nM)
One number for each entry, in nM.

So what's the measured concentration at 2 h for this one? C[C@@H]1CN(C(=O)[C@@H]2CN(C3CCOCC3)C[C@H]2c2ccc(F)cc2F)C[C@H](C)N1c1ccc(F)cc1 (single isomer, unassigned) 965

* * *

# tested-target: MC1R (Homo sapiens, UniProt Q01726)
# Construct: expressed in transfected cells
# Sequence (Q01726 whole entry): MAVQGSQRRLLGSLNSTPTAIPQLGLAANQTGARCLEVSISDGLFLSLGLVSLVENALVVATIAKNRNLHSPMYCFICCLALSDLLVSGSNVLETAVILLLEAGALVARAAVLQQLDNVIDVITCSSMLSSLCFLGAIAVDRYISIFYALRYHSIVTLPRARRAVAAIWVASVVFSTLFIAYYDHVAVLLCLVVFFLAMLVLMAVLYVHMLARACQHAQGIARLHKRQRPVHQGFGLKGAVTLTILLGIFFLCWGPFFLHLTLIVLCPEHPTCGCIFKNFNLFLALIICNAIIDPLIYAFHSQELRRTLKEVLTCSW
# measurement-notes: In vitro activity of MCR receptors, intracellular cAMP signal (HEK293T/MCR cell line), MC1R
# Type: cell-based
What pEC50 was measured for each of the following?
Answers are plain numbers, as −log10 of the molar value.

The following compounds have reported results that may help.
[
  {
    "compound": "C[C@@H]1CN(C(=O)[C@@H]2CN(C(C)(C)C)C[C@H]2c2ccc(F)cc2F)C[C@H](C)N1c1ccccn1",
    "assay-metric": "pEC50",
    "measured-value": 5.63
  },
  {
    "compound": "C[C@@H]1CN(C(=O)C2CN(C(C)(C)C)CC2c2ccc(F)cc2F)C[C@H](C)N1c1ccc(F)cc1 (single isomer, unassigned)",
    "assay-metric": "pEC50",
    "measured-value": 6.52
  },
  {
    "compound": "C[C@@H]1CN(C(=O)C2CN(c3cccnn3)CC2c2ccc(F)cc2F)C[C@H](C)N1c1ccc(F)cc1 (single isomer, unassigned)",
    "assay-metric": "pEC50",
    "measured-value": 7.09
  },
  {
    "compound": "C[C@@H]1CN(C(=O)C2CN(C3CCOCC3)CC2c2ccc(Cl)cc2)C[C@H](C)N1c1ccc(F)cc1 (single isomer, unassigned)",
    "assay-metric": "pEC50",
    "measured-value": 6.78
  },
  {
    "compound": "C[C@@H]1CN(C(=O)C2CN(C(C)(C)C)CC2c2ccc(Cl)cc2)C[C@H](C)N1c1ccc(F)cc1 (single isomer, unassigned)",
    "assay-metric": "pEC50",
    "measured-value": 7.35
  }
]

# evaluate next
Provide value of pEC50 for this record tested with MC1R (Homo sapiens, UniProt Q01726): `C[C@@H]1CN(C(=O)[C@@H]2CN(C3CCOCC3)C[C@H]2c2ccc(F)cc2F)C[C@H](C)N1c1ccc(Cl)cc1` 6.24

* * *

# measurement-notes: Drug concentration in brain tissues of rats, oral gavage
# Format: in vivo
# measurement-conditions: SD, plasma, rat, p.o. 20 mg/kg, 4 hours, read-out: Plasma drug concentration
assay-metric: concentration at 4 h (nM)
Answers are plain numbers, in nM.

Need concentration at 4 h, item C[C@@H]1CN(C(=O)[C@@H]2CN(C3CCOCC3)C[C@H]2c2ccc(F)cc2F)C[C@H](C)N1c1ccc(F)cc1 (single isomer, unassigned) 1200

* * *

# measurement-notes: Pharmacokinetic parameters in rat plasma
# Format: in vivo, SD rats
# measurement-conditions: SD, iv, i.v. 2 mg/kg
# Procedure: 4 healthy SD rats of 6-9 weeks old were selected and randomly divided into two groups, 2 rats in each group. […] Quantitative analysis of all biological samples was performed using an LC-MS/MS method, with WinNonlin™ Version 6.3 (Pharsight, Mountain View, CA) pharmacokinetic software, to calculate relevant pharmacokinetic parameters using a […] model linear logarithmic trapezoid method. […]
assay-metric: half-life (h)
Give bare numbers, in h.

Suppose we examine the molecule C[C@@H]1CN(C(=O)[C@@H]2CN(C3CCOCC3)C[C@H]2c2ccc(F)cc2F)C[C@H](C)N1c1ccc(F)cc1 (single isomer, unassigned) ; what half-life value has been reported? 1.5
